# target: LIMK1 (Homo sapiens)
# Construct: purchased Thermo Fisher Scientific (SelectScreen Kinase assay service)
# assay_method_text: LanthaScreen Eu kinase binding assay (SelectScreen), LIMK1 inhibition
# experimental_context: as printed in text
quantity: pIC50
pIC50 here is simply -log10 of the concentration when that concentration is written in mol/L.

query: If you can, please state the reported pIC50 value of O=C(/C=C/c1cc(O)c(O)c(O)c1)CCCCc1ccccc1 .
result: 6.24

----------
The following compounds are listed with their measured IC50 values.
# target: LIMK1 (Homo sapiens)
# Construct: purchased Thermo Fisher Scientific (SelectScreen Kinase assay service)
# assay_method_text: LanthaScreen Eu kinase binding assay (SelectScreen), LIMK1 inhibition
Show the value, then the unit it is measured in.

Use the examples below as a reference point.
O=C(/C=C/c1ccc(O)c(O)c1)CCCCc1ccccc1O [Compound 7a]
1770 nM
O=C(/C=C/c1ccc(O)c(O)c1)CCCCn1ccc2c(O)cccc21 [Compound 13a]
940 nM
COCOc1cccc2c1ccn2CCCCC(=O)/C=C/c1ccc(O)c(O)c1 [Compound 15]
1880 nM
O=C(/C=C/c1ccc(O)c(O)c1)CCCCc1cccc(O)c1 [Compound 7b]
1110 nM
O=C(/C=C/c1cc(O)c(O)c(O)c1)CCCCc1ccccc1 [Compound XV]
570 nM

query: Any idea what IC50 was measured for O=C(/C=C/c1ccc(O)c(O)c1)CCCCc1ccccc1 [Compound I] ?
result: 1590 nM

query: Which IC50 is reported for this compound? O=C(/C=C/c1ccc(O)c(O)c1)CCCCc1ccc(O)cc1 [Compound 7c]
result: 1090 nM

query: # query: IC50 of entry O=C(/C=C/c1ccc(O)c(O)c1)CCCCn1ccc2ccc(O)cc21 [Compound 13b]
result: 1390 nM

query: // IC50 lookup, key: O=C(/C=C/c1ccc(O)c(O)c1)CCCCn1ccc2ccccc21 [Compound 18]
result: 1490 nM

----------
# target: LIMK1 (Homo sapiens, UniProt P53667)
# Construct: purchased Thermo Fisher Scientific (SelectScreen Kinase assay service)
# Sequence (P53667 whole entry): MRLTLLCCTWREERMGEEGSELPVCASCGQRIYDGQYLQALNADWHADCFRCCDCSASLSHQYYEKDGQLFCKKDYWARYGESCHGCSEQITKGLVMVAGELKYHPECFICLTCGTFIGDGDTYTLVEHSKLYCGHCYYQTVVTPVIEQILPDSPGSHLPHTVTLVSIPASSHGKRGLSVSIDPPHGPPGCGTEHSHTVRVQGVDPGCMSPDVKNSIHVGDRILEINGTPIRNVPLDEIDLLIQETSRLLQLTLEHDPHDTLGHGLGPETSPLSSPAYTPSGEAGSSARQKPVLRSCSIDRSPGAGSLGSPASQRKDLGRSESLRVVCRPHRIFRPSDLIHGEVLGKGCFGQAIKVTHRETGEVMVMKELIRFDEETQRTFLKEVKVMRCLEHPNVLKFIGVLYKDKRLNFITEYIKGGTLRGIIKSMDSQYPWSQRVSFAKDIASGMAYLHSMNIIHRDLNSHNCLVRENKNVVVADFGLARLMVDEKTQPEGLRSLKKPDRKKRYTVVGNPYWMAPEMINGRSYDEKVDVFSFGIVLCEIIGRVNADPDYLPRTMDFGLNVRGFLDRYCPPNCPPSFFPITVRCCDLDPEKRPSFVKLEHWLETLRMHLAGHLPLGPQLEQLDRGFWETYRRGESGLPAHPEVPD
# assay_method_text: LanthaScreen Eu kinase binding assay (SelectScreen), LIMK1 inhibition
# experimental_context: compound at 10 μM, average of two replicates, read-out: Inhibition percentage at 10 μM
quantity: inhibition at 10 µM (%)
Your answer is read as %, so omit the unit and give the number.

Before answering, review these 5 worked examples.
O=C(/C=C/c1ccc(O)c(O)c1)c1ccccc1
84
O=C(/C=C/c1ccc(O)c(O)c1)CCCCn1ccc2ccc(O)cc21 [Compound 13b]
106
O=C(/C=C/c1cc(O)c(O)c(O)c1)CCCCc1ccccc1
112
O=C(/C=C/c1ccc(O)c(O)c1)CCCCc1ccccc1
101
O=C(/C=C/c1ccc(O)c(O)c1)CCc1ccccc1
68

query: Please give the measured inhibition at 10 µM for this compound: O=C(CCCCn1ccc2ccc(O)cc21)CCc1ccc(O)c(O)c1 [Compound 14b]
result: 53

query: Bench note: what inhibition at 10 µM did O=C(CCCCc1ccccc1O)CCc1ccc(O)c(O)c1 show?
result: 37

query: Any idea what inhibition at 10 µM was measured for O=C(/C=C/c1ccc(O)c(O)c1)CCCCn1ccc2ccccc21 ?
result: 110

----------
Parameter inhibition at 10 µM: see the listing below.
# target: LIMK1 (Homo sapiens)
# Construct: purchased Thermo Fisher Scientific (SelectScreen Kinase assay service)
# assay_method_text: LanthaScreen Eu kinase binding assay (SelectScreen), LIMK1 inhibition
# experimental_context: compound at 10 μM, average of two replicates, read-out: Inhibition percentage at 10 μM
Reply with just the number (in %).

O=C(/C=C/c1ccc(O)c(Cl)c1)CCCCc1ccccc1 [XI]
4
O=C(/C=C/c1ccc(O)c([N+](=O)[O-])c1)CCCCc1ccccc1 [XIII]
7

query: Which inhibition at 10 µM is reported with LIMK1 (Homo sapiens) for this entry: O=C(CCCCc1ccc(O)cc1)CCc1ccc(O)c(O)c1 [Compound 8c] ?
result: 47

query: Under LIMK1 (Homo sapiens): inhibition at 10 µM value of O=C(CCCCn1ccc2ccccc21)CCc1ccc(O)c(O)c1 [Compound 19] ?
result: 28

query: Write down the reported inhibition at 10 µM of O=C(/C=C/c1ccc(O)c(O)c1)CCCCc1ccc(O)cc1 [Compound 7c] , test system: LIMK1 (Homo sapiens).
result: 106

query: API: value(readout= inhibition at 10 µM, system= LIMK1 (Homo sapiens), query= O=C(/C=C/c1ccc(O)c(Br)c1)CCCCc1ccccc1 [XII] )
result: 1
